Hi there, I'd appreciate the recorded IC90 for every entry that follows.
System: Plasmodium berghei
METHOD_SUMMARY: Luciferase/luciferin-expressing antifolate-resistant parasites were used to infect a culture of HepG2 cells that were pre-incubated with compounds. Infected hepatocytes emit light due to the luciferase reaction. Assay results are presented as the percent inhibition of light emission compared to control. […]
Type: functional
ASSAY_CONDITIONS: sporozoite, read-out: LUCIFERASE INFECTION ASSAY - IC90

Check out these entries, answers already filled in.
INSERT INTO assay_data (compound, target_or_test_system, readout_label, result) VALUES
  ('CN(Cc1cc(=O)n2c([nH]c3ccccc32)c1C#N)Cc1c(F)cccc1Cl', 'Plasmodium berghei', 'IC90', '6.11 µM'),
  ('CN(C)S(=O)(=O)c1ccc(N2CCCC2)c(C(=O)N2CCCC2)c1', 'Plasmodium berghei', 'IC90', '> 10 µM');

Quick request: IC90 for each listed item, please.
1. CNc1ccccc1C(C)(C)c1cc(-c2ccc(C(C)C)cc2)n[nH]1
2. CC(C)c1ccc(N/N=C/c2cc(C#Cc3ccccc3)cs2)cc1
3. O=C(c1ccc(Cn2cccn2)cc1)N(C/C=C/c1ccccc1)c1ccc2c(c1)OCCO2
4. CC(CNC(=O)C1CCN(S(=O)(=O)c2cccs2)CC1)c1nc2ccccc2n1C(F)F (stereo not given)
5. COc1ccc(/C=C/C(=O)c2cc(Cl)c(OC)cc2OC)cc1O
6. Cc1nc(Oc2ccc3ccc(=O)oc3c2)c2c3c(sc2n1)CCCCC3
7. O=C1CCCC2=Nc3ccc4ccccc4c3C(c3ccc(F)cc3F)C12 (stereo not given)

Reply text:
["> 10 µM", "> 9.58 µM", "5.09 µM", "> 10 µM", "1.26 µM", "> 10 µM", "> 10 µM"]

GET /value?item= Cn1c(Nc2ccccc2)nc2cnc(-c3ccc(Cl)cc3)cc21 &field=IC90 returns > 10 µM
